// values below are reported normalized RNA/DNA level without ligand (log10)
B1: library; a variant is named by its letters at N, in order (parent)
chain: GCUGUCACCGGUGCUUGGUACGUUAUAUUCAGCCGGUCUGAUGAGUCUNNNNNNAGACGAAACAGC

# Variants of: B1
# METHOD NOTES: normalized RNA/DNA level without ligand (relative to sTRSVctl = 100) (log10 (% of sTRSVctl)); HEK293T overexpressing SLC46A1; higher = less ribozyme self-cleavage, higher mRNA level
# STUDY CONDITIONS: without (6R,S)-folinic acid; ligand present: no
Enter the number alone.

>>> val("GGAGGU")
2.02
>>> val("GUAUCC")
2.02
>>> val("GUCUGC")
2.02

The variant identified as `GCCACG` registered its normalized RNA/DNA level without ligand (log10) at 1.99

The variant identified as `UAACGC` registered its normalized RNA/DNA level without ligand (log10) at 1.99

The variant identified as `CUACAU` registered its normalized RNA/DNA level without ligand (log10) at 1.97

The variant identified as `CAGCCG` registered its normalized RNA/DNA level without ligand (log10) at 2.04

The variant identified as `AUACCG` registered its normalized RNA/DNA level without ligand (log10) at 2.01
